test: Cytotoxicity against human HepG2 cells after 24 hrs by MTT assay; type: cell-based; settings: read-out: MDL50
Catalogue of compounds with associated CC50 at 24 h

Worked set:
- Sample smiles: "O=C(NCCCCNCCCNC(=O)c1cc(Br)c(Br)o1)c1cc(Br)c(Br)o1"
  CC50 at 24 h: "≥ 400 µM"
- Sample smiles: "O=C(NCCCCCCNCCCCCCNC(=O)c1cc(Br)c(Br)[nH]1)c1cc(Br)c(Br)[nH]1"
  CC50 at 24 h: "263 µM"
- Sample smiles: "O=C(NCCCCNCCCNC(=O)c1cc(Br)c(Br)[nH]1)c1cc(Br)c(Br)[nH]1"
  CC50 at 24 h: "16 µM"

Request: Quickly give me recorded CC50 at 24 h for O=C(NCCCCNCCCNC(=O)c1cc(Br)c[nH]1)c1cc(Br)c[nH]1
Response: ≥ 400 µM

Request: Supply reported CC50 at 24 h belonging to this compound: CN(CCCCNC(=O)c1cc(Br)c(Br)[nH]1)CCCNC(=O)c1cc(Br)c(Br)[nH]1
Response: 160 µM

Request: Look up CC50 at 24 h of O=C(NCCCNCCCCNCCCNC(=O)c1cc(Br)c(Br)[nH]1)c1cc(Br)c(Br)[nH]1 and report it.
Response: 99 µM
